Recorded measurements of pEC50, one per entry
Target: AGTR1 (Homo sapiens)
Construct: host or cells: Pathunter CHO-K1 AGTR1 β-arrestin cell line (CHO-K1)
Sequence (P30556 1-359): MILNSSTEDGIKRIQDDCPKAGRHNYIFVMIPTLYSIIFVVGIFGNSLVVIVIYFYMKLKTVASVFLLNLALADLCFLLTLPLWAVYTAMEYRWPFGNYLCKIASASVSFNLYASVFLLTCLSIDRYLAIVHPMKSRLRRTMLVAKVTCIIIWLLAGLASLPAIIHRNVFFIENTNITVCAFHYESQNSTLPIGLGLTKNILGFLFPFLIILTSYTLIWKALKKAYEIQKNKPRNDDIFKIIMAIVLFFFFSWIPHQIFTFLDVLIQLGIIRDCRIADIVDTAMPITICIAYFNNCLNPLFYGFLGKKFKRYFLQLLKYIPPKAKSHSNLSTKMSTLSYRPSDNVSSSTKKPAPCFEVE
Assay: DiscoveRx β-arrestin2 recruitment assay (enzyme complementation, Pathunter CHO-K1 AGTR1 β-arrestin cell line)
Assay type: cell-based
Conditions: DiscoveRx β-arrestin2 recruitment
Method: In one aspect of the invention, signaling bias of compounds was assessed by comparing the relative activity of compounds to activate both the β-arrestin and Gq signaling pathways. In order to confirm signaling bias, compounds were studied in two different assay formats. DiscoveRx β-arrestin2 Recruitment and IP1 Assays β-arrestin2 recruitment to activated receptors can be assessed using an enzyme complementation method (Zhao, Jones et al. 2008). […]
pEC50: −log10 of the molar value.
readout_name: pEC50

[[record]]
molecule = "CCCCC(=O)N(Cc1ccc(-c2cc(N3CCC(C)CC3)ccc2-c2nn[nH]n2)cc1)[C@H](C(=O)O)C(C)C"
readout_qualifier = "="
assay_result = 6.53

[[record]]
molecule = "CCCCC1=NC2(CCCC2)C(=O)N1Cc1ccc(-c2cc(-c3cscn3)ccc2-c2nn[nH]n2)cc1"
readout_qualifier = "<"
assay_result = 4.00

[[record]]
molecule = "CCc1nc2c(C)cc(C)nc2n1Cc1ccc(-c2cc(-c3ccccc3)ccc2-c2nnn[nH]2)nc1"
readout_qualifier = "="
assay_result = 7.50

[[record]]
molecule = "CCc1nc2c(C)cc(C)nc2n1Cc1ccc(-c2cc(-c3ccccc3O)ccc2C(=O)O)cc1"
readout_qualifier = "="
assay_result = 7.51

[[record]]
molecule = "CCCCc1ncc(C(=O)NCC(C)(C)COC)n1Cc1ccc(-c2cc(-c3ccccc3)ccc2-c2nn[nH]n2)cc1"
readout_qualifier = "="
assay_result = 7.53


---

Biological target: AGTR1 (Homo sapiens, UniProt P30556)
Construct: host or cells: Pathunter CHO-K1 AGTR1 β-arrestin cell line (CHO-K1)
Assay: DiscoveRx β-arrestin2 recruitment assay (enzyme complementation, Pathunter CHO-K1 AGTR1 β-arrestin cell line)
Type: cell-based
Conditions: DiscoveRx β-arrestin2 recruitment, maximal response
Classification field: label 1 = DiscoveRx β-arrestin2 Ymax (%) at or over 20%; label 0 = DiscoveRx β-arrestin2 Ymax (%) under 20%.

[[record]]
molecule = "CCOc1nc2cccc(C(=O)O)c2n1Cc1ccc(-c2cc(N3CCC[C@H](C)C3)ccc2-c2nn[nH]n2)cc1 [Example 324]"
classification = "label 1"

[[record]]
molecule = "CCCCC1=NC2(CCCC2)C(=O)N1Cc1ccc(-c2cc(-c3ccccc3)ccc2C(=O)O)cc1 [Example 145]"
classification = "label 1"

[[record]]
molecule = "CCc1nc2c(C)cc(C)nc2n1Cc1ccc(-c2cc(-c3ccccc3)ccc2C(=O)O)nc1 [Example 201]"
classification = "label 0"

[[record]]
molecule = "CCc1nc2c(C)cc(C)nc2n1Cc1ccc(-c2cc(N3CCCC(C)(C)C3)ccc2-c2nn[nH]n2)cc1 [Example 98]"
classification = "label 1"

[[record]]
molecule = "CCOc1nc2cccc(C(=O)O)c2n1Cc1ccc(-c2cc(-c3ccccc3)ccc2-c2noc(=O)[nH]2)cc1 [Example 311]"
classification = "label 1"

[[record]]
molecule = "CCc1nc2c(C)cc(C)nc2n1Cc1ccc(-c2cc(-n3cnc4ccccc43)ccc2-c2nnn[nH]2)cc1 [Example 222]"
classification = "label 1"

[[record]]
molecule = "CCC1=NC2(CCOC2)C(=O)N1Cc1ccc(-c2cc(-c3ccccc3)ccc2-c2nn[nH]n2)cc1 (single isomer, unassigned) [Example 165]"
classification = "label 1"

[[record]]
molecule = "CCCCC(=O)N(Cc1ccc(-c2cc(-c3ccccc3)ccc2-c2nn[nH]n2)cc1)C1(C(=O)O)CC1 [Example 269]"
classification = "label 0"

[[record]]
molecule = "CCCCc1ncc(C(=O)N(C)C)n1Cc1ccc(-c2cc(-c3ccccc3)ccc2-c2nn[nH]n2)cc1 [Example 383]"
classification = "label 1"

[[record]]
molecule = "CCCCC1=NC2(CCCC2)C(=O)N1Cc1ccc(-c2cc(-c3cccs3)ccc2-c2nn[nH]n2)cc1 [Example 131]"
classification = "label 0"

[[record]]
molecule = "CCc1nc2c(C)cc(C)nc2n1Cc1ccc(-c2cc(-c3cccc(C)c3)ccc2C(=O)O)nc1 [Example 203]"
classification = "label 1"

[[record]]
molecule = "CCCCC1=NC2(CCCC2)C(=O)N1Cc1ccc(-c2cc(-c3cccnc3)ccc2-c2nn[nH]n2)cc1 [Example 125]"
classification = "label 0"

